test-method-notes: yeast display, Sf9 membrane polyspecificity reagent, FACS + sequencing; frameworks hold sequencing errors

>  <sequence>
QVQLVESGGGLVQAGGSLRLSCAASGSIFYTNVMGWYRQAPGKERELVARIDSGGSTNYADSVKGRFTISRDNAKNTVFLQMNSLNPEDTAVYYCAADWYIYDYWGQGTQVTVSS

>  <polyreactivity (PSR sort gate)>
low polyreactivity

$$$$
>  <sequence>
QVQLVESGGGLVQAGGSLRLSCAASGFIFYLYAMGWSRQAPGKERELVASINVSGASTRYADSVKGRFTISRDNAKNTVYLQMNSLKPEDTAVYYCAAPSRYDYWGQGTQVTVSS

>  <polyreactivity (PSR sort gate)>
low polyreactivity

$$$$
>  <sequence>
QVQLQVSGGDLVPAGGSLRLSCAGSGTIYGLTSMAWYRQAPGKEREFVAAITDGGNANYADSVKGRFTISRDNAKNTVYLQMISLKPEDTAVYYCAVLFSDDAYYAYWGQGTQVTVSS

>  <polyreactivity (PSR sort gate)>
low polyreactivity

$$$$
>  <sequence>
QVQLVESGGGLVQAGGSLRLSCAASGSTFGSYAMGWYRQAPGKERELVAAISGRGGRTSYADSVKGRFTISRDNAKNTVYLQMNSLKPQDTAVYYCAAKRGGLGVTAASLYDYYFWGQGTQVTVSS

>  <polyreactivity (PSR sort gate)>
high polyreactivity

$$$$
>  <sequence>
QVQLVESGGGLVQAGGSLRLSCAASGSTFDSNGMGWYRQAPGKERELVADITYSDGRTYADSVKGRFTISRDNAKNTVYLQMNSLKPEDTAVYYCAVSDSVYAGFTSYDYWGQGTQVTVSS

>  <polyreactivity (PSR sort gate)>
low polyreactivity

$$$$
>  <sequence>
QVQLVESGGGLVQAGGSLRISCAASGRTFVGNAMGWYRQAPGKERELVAAMTLSDGSTYYADSVKGRFTISRDIAMNTVYLQMNSLKPEDTAVYYCNAGDGPDEEYDYWGQVTQVTVSS

>  <polyreactivity (PSR sort gate)>
low polyreactivity

$$$$
>  <sequence>
QVQLVESGGGLVQAGGSLRLSCAASGFIFQEYVMGWYRQAPGKERELVAAISRSGGRTYYADSVKGRFTISRDNAKNTVYLQMNSLKPEDTAVYYCAATYTKSHGVRYYHWGQGTQVTVSS

>  <polyreactivity (PSR sort gate)>
high polyreactivity

$$$$
>  <sequence>
QVQLVESGGGLVQAGGSLRLSCAASGRIFGWNAMGWYRQAPGKERELVAVIDTGGSTNYADSVKGRFTISRDNAKNTVYLQMNSLKPEDTAVYYCAAVTGIRYFTSEYDYWGQGTQVTVSS

>  <polyreactivity (PSR sort gate)>
low polyreactivity

$$$$
>  <sequence>
QVQLVESGGGLVQAGGSLRLSCAASGSILYINAMGWYRQAPGKERELVAAITYSGGSTYYADSVKGRFTISRDNAKNTVYLQMNSLKPEDTAVYYWAADAVVAGRYDGHDYWGQGTQVTVSS

>  <polyreactivity (PSR sort gate)>
low polyreactivity

$$$$
>  <sequence>
QVQLVESGGGLVQAGGSLRLSCAASGRTFPGNAMGWYRQAPGKERELVAAISKSSSRTYYADSVKGRFTISRDNAKNTVYLQMNSLKPEDTAVYYCAASSFNNGHRYDYWGQGTQVTVSS

>  <polyreactivity (PSR sort gate)>
high polyreactivity

$$$$
>  <sequence>
QVQLVESGGGLVQAGGSLRLSCAASGSIFLWNAKGWYRQAPGKERELVAAISSGTSTNYADSVKGRFTISRDNAKNTVYLQMNSLKPEDTAVYYCAARGRKNQRRYGYWGQGTQVTVSS

>  <polyreactivity (PSR sort gate)>
low polyreactivity

$$$$
>  <sequence>
HVQLVESGGGLVQAGGSLRLSCAASGINFSWYPMGWYRQAPGKERELVAAISSSGGTTFYADSVKGRFTISRDKAKNTVYLQMNSLKPEDTAVYYCAVVGPPYYTWRVWRPAYDYWGQVTQVTVSS

>  <polyreactivity (PSR sort gate)>
high polyreactivity

$$$$
>  <sequence>
QVQLVESGGGLVQAGGSLRLSCAASGSIFYTNAMGWYRQAPGKERELVATITSSTGSTNYADSVKGRFTISRDNAKNTVYLQMNSLKPEDTAVYYCAKRDCYWVYYQMDYWGQGTQVTVSS

>  <polyreactivity (PSR sort gate)>
low polyreactivity

$$$$
>  <sequence>
QVQLVESGGGLVQGGGSLRLSCASSGSIFGWNAMGWYRPAPGKERELVAAISFSGSCTFYADSVKGRFTISRDNAKNTVYLQMNSLKPEDTAVYDCAAEPYSVYEYYYWGQGTQVTGSS

>  <polyreactivity (PSR sort gate)>
high polyreactivity

$$$$
>  <sequence>
QVQLVESGGGLVHAGGSLRLSCAASGFIFPWYAMGWSRQAPGKERELVAIISWDTGSTYYADSVKGRFTISRDNAKNTVYLQINRLKPEDSAVYYCVAYVGSTYSAPEYYWGQGTQVTVSS

>  <polyreactivity (PSR sort gate)>
low polyreactivity

$$$$
>  <sequence>
QVQLVESGGGLVQAGGSLRLSCAASGSTFNTNTMGWYRQAPGKERELVAAISQSGTRTYYANSVKGRFTISRDNAKYTVYFQMNSLKPEDTAVYYCSADRQRYTSSSRKGLGYWGQGTQVTVSS

>  <polyreactivity (PSR sort gate)>
high polyreactivity

$$$$
>  <sequence>
QVQIVQSGGGLVQAGGSLRLSCAASGSTITYNAMGWYRQAPGKERELVAAITVSDGSTYYADSVKGRFTISRDNAKNTVYLQMNSLKPEDTAVYYCNAYAVYLRYLWYDFWGQGTQVTVSS

>  <polyreactivity (PSR sort gate)>
low polyreactivity

$$$$
>  <sequence>
QVQLVESGGGLVQAGGSLRLSCAASGSTFKRNAMGWYRPATGKERELVATITRRGGSTYADSVKGRFTISRDNAKNTVYLQMNSLKPEDTAVYYCNADSRPLSTYYYWGQGTQVTVSS

>  <polyreactivity (PSR sort gate)>
low polyreactivity

$$$$
>  <sequence>
QVQLQESGGGLVQAGVSLRLSCAASGNINDADIMGCYRQAPGKERELVTSITDGGSTNYADSVKGRFTISRDNAKNTVYLQMNSLKPEDTAVYYCAAIAYPVIPTSFDYNSDYSYWGQGTQVTVSS

>  <polyreactivity (PSR sort gate)>
low polyreactivity

$$$$
>  <sequence>
QVQLVESGGGLVQAGGSLRLSCAASGSIFYWYALGWYRQAPGKERELVADITTSDGRTYYADSVKGRFTISRDNAKNTVNLQMNSLKPEDTAVYYCAADPFSGYGFQYYRGLYYWGQGTQVSVSS

>  <polyreactivity (PSR sort gate)>
low polyreactivity

$$$$
>  <sequence>
QVQLVESGGGLVQAGGSLRLSCAASGFTFGYYAMGWYRQAPGKERELVAAITNSGGSTYYADSVKGRFTISRDNAKNTVYLQMNSLKPEDTAVYYCAAEISILPFVTPDTIYGYWGQGTQVTVSS

>  <polyreactivity (PSR sort gate)>
low polyreactivity

$$$$

* * *

test-method-notes: yeast display, Sf9 membrane polyspecificity reagent, FACS + sequencing; frameworks hold sequencing errors

>  <sequence>
QVQLVESGGGLVQAGGSLRLSCAASGFTFFSNAMGWYRQAPGKERELVASISASGSGTYYADSVKGRFTISRDNAKNTVYLQMNSLKPEDTAVYYCAAQYRVNARSGVYRGYRYNYWGQGTQVTVSS

>  <polyreactivity (PSR sort gate)>
high polyreactivity

$$$$
>  <sequence>
QVQLVESGGGLVQAGGSLRLSCAASGRTFNHYAMGWYRQAPGKERELVPGITISGGSTYYADSVKGRFTISRDNAKNTVYLQMNSLKPEDTAVYYCNAVYDYYRQSNWTMDYWGQGTQVTVSS

>  <polyreactivity (PSR sort gate)>
low polyreactivity

$$$$
>  <sequence>
QVQLVESRGGLVQAGGSLRLSCAASGFIFKTNAMGWYRQAPVKERELVAAISNSDGSTYYADSVKGRFTISRDNAKNTVYLQMNSLKPEDTAVYYCAADRTDFWPYDYWGQGTQVTVSS

>  <polyreactivity (PSR sort gate)>
low polyreactivity

$$$$
>  <sequence>
QVQLVESGGGLVQAGGILRLSCAASGSTFYQYAMGWYRQAPGKERELVAAITRGGRTYYADSVKGRFTISRDNAKNTVYLQMNSLKPEDTAVYYCAAGYRTAYRGSSYYYWGQGTQVTVSS

>  <polyreactivity (PSR sort gate)>
high polyreactivity

$$$$
>  <sequence>
QVQLVESGGGLVQAGGSLRLSCAASGFTSWDNDMGWYRQAPGKERELVAAISRGGSTNYADSVKGRFTISRDNAKNTVYLQMNSLNPEDTAVYYCAAEDWYQRYGYEYDYWGQGTQVTVSS

>  <polyreactivity (PSR sort gate)>
low polyreactivity

$$$$

* * *

test-method-notes: yeast display, Sf9 membrane polyspecificity reagent, FACS + sequencing; frameworks hold sequencing errors
measurement-type: polyreactivity (PSR sort gate)

>  <sequence>
QVQLVESGGGLVQAGGSLRLSCAASGFTFLHNAMGWYRQAPGKDRELVAAISYSGGSTYADSVKGRFTISRDNAKYTVYLQMNSLKPEDTADYYCNADYSSQDNFDYWGQGTQVTVSS

>  <reading>
low polyreactivity

$$$$
>  <sequence>
QVQLVESGGGLVQAGGSLRLSCAASGRIFSSYAMGWYRQAPGKERELVAAISSRGGSTYYADSVKGRFTIARDNAKNTVYLQMNSLKPEDTAVYYCARVKYSGVVYKYDYWGQGTQVTVSS

>  <reading>
high polyreactivity

$$$$
>  <sequence>
QVQLVESGGGLVQAGGSLRLSCAASGSIFINNAMGWYRQATGKERELVSAIRRGDSTTYADSVKGRFTISRDNAKNTVYLQMNSLKPEDTAVYYCATSPWWYGYAAYGMDYWGQGTQVTVSS

>  <reading>
low polyreactivity

$$$$
>  <sequence>
QVQLVESGGGLVQAGGSLRLSCAASGSTFWYYAMGWYRQAPGKEREMVATIRWRGGSTYYADSVKGRFTISRDNAKNTLYLQMNSLKPEDTAVYYCAADTWAYVGYYYGFDYWGQGTQVTVSS

>  <reading>
high polyreactivity

$$$$
>  <sequence>
QVQHVESGGGLVQAGGSLRLSCAASGSTITANAMGWYRQAPGKERELVPAISDTTGNTYYADSVMGRFTISRDNANNTVYLQMNSLKPEDTAVYYCAADLTSYYGGDYWGQGTQVTVSS

>  <reading>
low polyreactivity

$$$$
>  <sequence>
QVQLVESGGGLVQAGGSLRLSCAASGRTITRYTMGWYRQAPGKERELVAAIRYSGGSTYYADSVKGRFTISRDTAKNTIYLQMNSLKPEDTAVYYCAARSYYYGFLYSYDYWGQGTQVTVSS

>  <reading>
low polyreactivity

$$$$
>  <sequence>
QVQLVESGGGLVQAGGSLRLSCAASGRTFAYNAMGWYRPAPGKERELVAAITGSGGRTYYADSVKGRFTISRDNAKNTVYLQMNSLKAEDTAVYYCAVGLPSRYDYWGQGTQVTVSS

>  <reading>
low polyreactivity

$$$$
>  <sequence>
QVQLVESGGGLVQAGGSLRLSCAASGSIFVTYAMGWYRQAPGKERELVAVITWGGGSTYYADSVKGRFTISRDNAKNTVYLQMNSLKQEDTAVYYCAKDAFFTEIAIRDHIISHHYYWGQGTQVTVSS

>  <reading>
low polyreactivity

$$$$
>  <sequence>
QVQLVESGGGLVQAGGSLPLSCAASGSTFDRNVMGWYRQAPGKERELVAAISRVSSTNYADSVKGRFTISRDNAKNTVNLQMNSLKPEDTAVYSCAADGAGSIMNYWGQGTQVTVSS

>  <reading>
low polyreactivity

$$$$
>  <sequence>
QVQLVESGGGLVQAGGSLRLICAASGRTFGYNAMGWYRQAPGKEREFVAAISWSGGRTYYADSVKGRFTISRDNAKNTVYLQMNSLKPEHSAVYYCAAGFGDGPGNGYYTRYSWDDDYWGQGTQVTVSS

>  <reading>
low polyreactivity

$$$$
>  <sequence>
QVQLVESGGGLVQAGGSLRLSCAASGSIFLYYAMGWYRQAPGKERELVAAITGGGGTNYADSVKGRFTISRDNAKNTVYLQMNSLKPEDTAVYYCAADPSGQFPYSYYNYDYDYWGQGTQVTVSS

>  <reading>
low polyreactivity

$$$$
